- Tested on: Apomorphine-induced agitation, stereotypy in rats
- Assay Protocol: Inhibition of the apomorphine induced agitation test in rats
- Format: in vivo
- Condition Summary: Rattus norvegicus, sc, 0.5 h; subcutaneously, apomorphine 1.0 mg/kg i.v. at 30 min, male Wiga Wistar rats; read-out: sc Dose: lowest active dose at which 3 out of 3 rats met a criterion for inhibition of agitation
Metric: minimal effective dose (mg/kg)
All answers are understood in mg/kg, so give the number only.

# example entries with known answers
Observed minimal effective dose, Apomorphine-induced agitation, stereotypy in rats, N#Cc1ccc(NC2CCN(Cc3ccc(F)c(C(F)(F)F)c3)CC2)nn1 : 2.5

Observed minimal effective dose, Apomorphine-induced agitation, stereotypy in rats, N#Cc1ccc(NC2CCN(Cc3ccc(Cl)cc3)CC2)nn1 : 0.63

Observed minimal effective dose, Apomorphine-induced agitation, stereotypy in rats, N#Cc1ccc(NC2CCN(Cc3cccc(F)c3)CC2)nn1 : 2.5

Observed minimal effective dose, Apomorphine-induced agitation, stereotypy in rats, Cc1ccc(CN2CCC(Nc3ccc(C#N)nn3)CC2)cc1F : 0.16

Observed minimal effective dose, Apomorphine-induced agitation, stereotypy in rats, N#Cc1ccc(NC2CCN(Cc3ccc(F)cc3)CC2)nn1 [Example E2] : 0.63

---
Observed minimal effective dose, Apomorphine-induced agitation, stereotypy in rats, N#Cc1ccc(NC2CCN(Cc3cc(F)c(F)c(F)c3)CC2)nn1 : 0.63

Observed minimal effective dose, Apomorphine-induced agitation, stereotypy in rats, N#Cc1ccc(NC2CCN(Cc3ccc(C(F)(F)F)c(F)c3)CC2)nn1 : 2.5

Observed minimal effective dose, Apomorphine-induced agitation, stereotypy in rats, N#Cc1ccc(NC2CCN(Cc3ccccc3)CC2)nn1 [Example D2] : 2.5

Observed minimal effective dose, Apomorphine-induced agitation, stereotypy in rats, Cc1cc(NC2CCN(Cc3cc(F)cc(F)c3)CC2)nnc1C#N : 2.5

Observed minimal effective dose, Apomorphine-induced agitation, stereotypy in rats, N#Cc1ccc(NC2CCN(Cc3cc(F)cc(F)c3)CC2)nn1 : 0.63

Observed minimal effective dose, Apomorphine-induced agitation, stereotypy in rats, N#Cc1ccc(NC2CCN(Cc3cc(F)cc(C(F)(F)F)c3)CC2)nn1 : 0.63

Observed minimal effective dose, Apomorphine-induced agitation, stereotypy in rats, Cc1c(C#N)nnc(NC2CCN(Cc3cc(F)cc(F)c3)CC2)c1C : 0.63

Observed minimal effective dose, Apomorphine-induced agitation, stereotypy in rats, N#Cc1ccc(NC2CCN(Cc3cccc(C(F)(F)F)c3)CC2)nn1 : 0.63

Observed minimal effective dose, Apomorphine-induced agitation, stereotypy in rats, N#Cc1ccc(NC2CCN(Cc3ccc(C(F)(F)F)cc3)CC2)nn1 : 0.63

Observed minimal effective dose, Apomorphine-induced agitation, stereotypy in rats, N#Cc1ccc(NC2CCN(Cc3cccc(Cl)c3)CC2)nn1 : 2.5

Observed minimal effective dose, Apomorphine-induced agitation, stereotypy in rats, N#Cc1ccc(NC2CCN(Cc3ccc(F)c(F)c3)CC2)nn1 [Example E1] : 2.5

Observed minimal effective dose, Apomorphine-induced agitation, stereotypy in rats, Cc1ccc(CN2CCC(Nc3ccc(C#N)nn3)CC2)cc1 : 2.5

---

Metric: melting point (°C)
All answers are understood in °C, so give the number only.

Recorded result, N#Cc1ccc(NC2CCN(Cc3cccc(F)c3)CC2)nn1 , melting point: 190.3

Recorded result, N#Cc1ccc(NC2CCN(Cc3ccc(F)cc3)CC2)nn1 [Example E2] , melting point: 187.44

Recorded result, N#Cc1ccc(NC2CCN(Cc3ccc(Cl)cc3)CC2)nn1 , melting point: 209.77

---
Recorded result, N#Cc1ccc(NC2CCN(Cc3cc(F)cc(C(F)(F)F)c3)CC2)nn1 , melting point: 151.4
